# System: wheat (Triticum aestivum)
# PROTOCOL DETAILS: Test A postemergence greenhouse test
# Type: in vivo
# CONDITION DESCRIPTION: 31 g ai/ha
ASSAY ENDPOINT: Plant response rating (0 to 100 scale)
Just the number.

Below, 3 compounds whose answers are already recorded.
Cc1ccc2ccc(F)cc2c1-c1c(O)c(Cl)nn(C)c1=O 50
Cc1cc(Cl)c2ccccc2c1-c1c(O)c(Cl)nn(C)c1=O 80
Cc1ccc2ccc(C)c(-c3c(O)c(Cl)nn(C)c3=O)c2c1 20

Continue with the compound presented below.
Reported wheat (Triticum aestivum) Plant response rating (0 to 100 scale) for item Cc1ccc2ccc(Cl)cc2c1-c1c(O)c(Cl)nn(C)c1=O was 100

----------
# Test system: corn (Zea mays)
# PROTOCOL DETAILS: Test C pre-/postemergence greenhouse test
# Assay type: in vivo
# CONDITION DESCRIPTION: Postemergence, 16 g ai/ha; scale 0 to 100
ASSAY ENDPOINT: Plant response rating, Corn
Could you keep your reply to the number by itself?

Cc1ccc2ccc(C)c(-c3c(O)c(Cl)nn(C)c3=O)c2c1 0
Cc1ccc2ccc(F)cc2c1-c1c(O)c(Cl)nn(C)c1=O 0
Cc1cc(Cl)c2ccccc2c1-c1c(O)c(Cl)nn(C)c1=O 30

// switching to the query compound
So, Cc1ccc2ccc(Cl)cc2c1-c1c(O)c(Cl)nn(C)c1=O ? Its Plant response rating, Corn was 0

----------
# Test system: crabgrass, large (Digitaria sanguinalis)
# PROTOCOL DETAILS: Test C pre-/postemergence greenhouse test
# Format: in vivo
# CONDITION DESCRIPTION: Postemergence, 62 g ai/ha; scale 0 to 100
ASSAY ENDPOINT: Plant response rating, Crabgrass, Large
Lab note: jot the number down without any unit.

Cc1ccc2ccc(F)cc2c1-c1c(O)c(Cl)nn(C)c1=O 40
Cc1ccc2ccc(Cl)cc2c1-c1c(O)c(Cl)nn(C)c1=O 15
Cc1cc(Cl)c2ccccc2c1-c1c(O)c(Cl)nn(C)c1=O 40

Let us move to another entry and its Plant response rating, Crabgrass, Large.
Value of measured Plant response rating, Crabgrass, Large for the entry Cc1ccc2ccc(C)c(-c3c(O)c(Cl)nn(C)c3=O)c2c1 : 70

----------
# System: galium (catchweed bedstraw, Galium aparine)
# PROTOCOL DETAILS: Test C pre-/postemergence greenhouse test
# Type: in vivo
# CONDITION DESCRIPTION: Preemergence, 31 g ai/ha; scale 0 to 100
ASSAY ENDPOINT: Plant response rating, Galium
Please respond with just the number, no unit label.

Would you please look over these solved cases?
COMPOUND	Plant response rating, Galium
Cc1ccc2ccc(F)cc2c1-c1c(O)c(Cl)nn(C)c1=O [Cpd. No. 21]	95
Cc1cc(Cl)c2ccccc2c1-c1c(O)c(Cl)nn(C)c1=O [Cpd. No. 65]	85
Cc1ccc2ccc(Cl)cc2c1-c1c(O)c(Cl)nn(C)c1=O [Cpd. No. 22]	50

Plant response rating, Galium recorded for this compound, Cc1ccc2ccc(C)c(-c3c(O)c(Cl)nn(C)c3=O)c2c1 [Cpd. No. 20] , is 100

----------
# Tested on: blackgrass (Alopecurus myosuroides)
# PROTOCOL DETAILS: Test C pre-/postemergence greenhouse test
# Format: in vivo
# CONDITION DESCRIPTION: Postemergence, 125 g ai/ha; scale 0 to 100
Catalogue of compounds with associated Plant response rating, Blackgrass
Quick one: just the number, no unit, thanks!

Field: example entries. Status: answers known.
Cc1ccc2ccc(Cl)cc2c1-c1c(O)c(Cl)nn(C)c1=O 100
Cc1cc(Cl)c2ccccc2c1-c1c(O)c(Cl)nn(C)c1=O 95
Cc1ccc2ccc(F)cc2c1-c1c(O)c(Cl)nn(C)c1=O 70

Then there is this compound:
Memo: Cc1ccc2ccc(C)c(-c3c(O)c(Cl)nn(C)c3=O)c2c1 , reported Plant response rating, Blackgrass: 45
